test system: CCRIS mutagenicity, Ames/micronucleus/aberration tests; assay: CCRIS mutagenicity studies; conditions: Test System: AMES SALMONELLA TYPHIMURIUM; Strain/Indicator: TA97; Metabolic Activation: NONE; Method: STANDARD PLATE
Calls of active or inactive are those of the source. The rule behind the calls is not given here.
Give your call using only these classes: t (active), f (inactive)

[in] Tell me the assay call for `Cc1c2ccccc2c(C)c2c1ccc1ccccc12` please.
[out] t

[in] Tell me the assay call for `COc1cccc2c1C(=O)c1c(O)c3c(c(O)c1C2=O)C[C@@](O)(C(=O)CO)C[C@@H]3O[C@H]1C[C@H](N)[C@H](OC)[C@H](C)O1` please.
[out] t

[in] Tell me the assay call for `Cc1cc(C(C)(C)C)c(O)c(C(C)(C)C)c1` please.
[out] f

[in] Tell me the assay call for `ClC(Cl)(Cl)Cl` please.
[out] f

[in] Tell me the assay call for `CN(C)c1ccc(C(=C2C=CC(=[N+](C)C)C=C2)c2ccc(N(C)C)cc2)cc1` please.
[out] f

[in] Tell me the assay call for `CN(C)C=O` please.
[out] f

[in] Tell me the assay call for `Cc1cccc2c1ccc1ccccc12` please.
[out] f

---

tested on: CCRIS mutagenicity, Ames/micronucleus/aberration tests; assay: CCRIS mutagenicity studies; conditions: Test System: AMES SALMONELLA TYPHIMURIUM; Strain/Indicator: TA1537; Metabolic Activation: RAT, LIVER, S-9, AROCLOR 1254; Method: STANDARD PLATE
Active and inactive are the calls of the source. How the calls were made is not given here.
Give your call using only these classes: 1 = active, -1 = inactive

Nc1cc([N+](=O)[O-])c(N)cc1Cl	-1

[in] Tell me the assay call for `Nc1c(C(=O)O)cc([N+](=O)[O-])c2c1C(=O)c1ccccc1C2=O` please.
[out] 1

[in] Tell me the assay call for `Nc1ccc2cc3ccc(N)cc3nc2c1` please.
[out] 1

[in] Tell me the assay call for `C#C[C@]1(O)CC[C@H]2[C@@H]3CCc4cc(O)ccc4[C@H]3CC[C@@]21C` please.
[out] -1

[in] Tell me the assay call for `O=[N+]([O-])O[C@@H]1CO[C@H]2[C@@H]1OC[C@@H]2O` please.
[out] -1

[in] Tell me the assay call for `CC(=O)c1ccc(S(=O)(=O)NC(=O)NC2CCCCC2)cc1` please.
[out] -1

[in] Tell me the assay call for `CC(=O)n1ncc(Cl)c(Cl)c1=O` please.
[out] -1

[in] Tell me the assay call for `CC(=O)Nc1ccc(S(=O)(=O)O)c2cc(S(=O)(=O)O)c(N=Nc3ccc(N=Nc4ccc(S(=O)(=O)O)cc4)c4ccc(S(=O)(=O)O)cc34)c(O)c12` please.
[out] -1

[in] Tell me the assay call for `CC1=C[C@@H]2c3cccc4[nH]cc(c34)C[C@H]2N(C)C1` please.
[out] -1

[in] Tell me the assay call for `O=C(O)c1cc2c(c3c1c([N+](=O)[O-])cc1c(O)cccc13)OCO2` please.
[out] -1

---

tested on: CCRIS mutagenicity, Ames/micronucleus/aberration tests; test: CCRIS mutagenicity studies; conditions: Test System: AMES SALMONELLA TYPHIMURIUM; Strain/Indicator: TA100; Metabolic Activation: S-9; Method: PREINCUBATION
Active and inactive are the calls of the source. No rule for the calls is given here.
Give your call using only these classes: active, inactive

The following molecules have reported results that may help.
COC(=O)c1ccccc1N	inactive
CCN1CCN(C(=O)N[C@@H](C(=O)N[C@@H]2C(=O)N3[C@@H]2SC(C)(C)[C@@H]3C(=O)O)c2ccccc2)C(=O)C1=O	inactive
NC(=O)Nc1cccc2cccnc12	inactive

[in] Tell me the assay call for `Cc1ccc(N)c(C)c1` please.
[out] active

[in] Tell me the assay call for C=C1[C@@H](O)[C@@H]2O[C@]3(CC[C@H](/C=C/[C@@H](C)[C@@H]4CC(C)=C[C@@]5(O[C@H](C[C@@](C)(O)C(=O)O)CCC5O)O4)O3)CC[C@H]2O[C@@H]1[C@@H](O)C[C@H](C)[C@H]1O[C@@]2(CCCCO2)CC[C@H]1C (stereo not given in full) please.
[out] inactive

[in] Tell me the assay call for `CNC(=O)c1cccc(NCC(=O)NCCc2ccc(OC)c(OC)c2)c1` please.
[out] inactive

[in] Tell me the assay call for `Clc1cccc(Cl)c1NC1=NCCN1` please.
[out] inactive

---

system: CCRIS mutagenicity, Ames/micronucleus/aberration tests; experiment: CCRIS mutagenicity studies; settings: Test System: AMES SALMONELLA TYPHIMURIUM; Strain/Indicator: TA1538; Metabolic Activation: RAT, LIVER, S-9, AROCLOR 1254; Method: STANDARD PLATE
Active and inactive are the calls of the source. The rule behind the calls is not given here.
Give your call using only these classes: active, inactive

The following compounds have reported results that may help.
CCOc1ccc(NC(C)=O)cc1N	active
C=Cc1ccncc1	inactive
Cc1c2ccccc2c(C)c2c1ccc1ccccc12	active
c1cc2ccc3ccc4ccc5cccc6c(c1)c2c3c4c56	active
Nc1c(C(=O)O)cc([N+](=O)[O-])c2c1C(=O)c1ccccc1C2=O	active
CNC(=O)Nc1ccccc1	inactive

[in] Tell me the assay call for `C=CCc1ccc(O)c(OC)c1` please.
[out] inactive

---

tested on: CCRIS mutagenicity, Ames/micronucleus/aberration tests; assay: CCRIS mutagenicity studies; details: Test System: Ames Salmonella typhimurium; Strain/Indicator: TA1537; Metabolic Activation: None; Method: Standard Plate
The source made the active and inactive calls. How the calls were made is not given here.
measured.property: mutagenic call

COc1ccc(C(O)(c2cncnc2)C2CC2)cc1 (centres undefined)	inactive; negative
CC(=O)Nc1ccc(N)cc1	inactive; negative
Oc1cc(Cl)ccc1Oc1ccc(Cl)cc1Cl	inactive; negative

---

system: CCRIS mutagenicity, Ames/micronucleus/aberration tests; assay: CCRIS mutagenicity studies; details: Test System: AMES SALMONELLA TYPHIMURIUM; Strain/Indicator: TA100; Metabolic Activation: NONE; Method: STANDARD PLATE
The source made the active and inactive calls. How the calls were made is not given here.
Give your call using only these classes: Yes = active, No = inactive

The following compounds have reported results that may help.
CC(C)Nc1ccc(Nc2ccccc2)cc1	No
O=S1(=O)OC(c2cc(Br)c(O)c(Br)c2)(c2cc(Br)c(O)c(Br)c2)c2ccccc21	No
NC(=O)c1csc([N+](=O)[O-])c1	Yes
CN(CC(=O)NN)c1ccc2ccccc2c1	No

[in] Tell me the assay call for `CC[n+]1c2ccccc2nc2ccccc21` please.
[out] No

[in] Tell me the assay call for `CC1=C2C(=CO[C@H](C)[C@H]2C)C(=O)C(C(=O)O)=C1O` please.
[out] No

---

system: CCRIS mutagenicity, Ames/micronucleus/aberration tests; test: CCRIS mutagenicity studies; settings: Test System: AMES SALMONELLA TYPHIMURIUM; Strain/Indicator: TA1535; Metabolic Activation: NONE; Method: STANDARD PLATE
The source made the active and inactive calls. How the calls were made is not given here.
Give your call using only these classes: active, inactive

The following compounds have reported results that may help.
Cc1ccc2nsc(N)c2c1	inactive
CCSCCSP(=O)(OC)OC	inactive
c1ccc2sncc2c1	inactive

Next item in the queue.
[in] Tell me the assay call for `CCCN(C(=O)CCCl)c1snc2ccccc12` please.
[out] active

---

system: CCRIS mutagenicity, Ames/micronucleus/aberration tests; assay: CCRIS mutagenicity studies; conditions: Test System: AMES SALMONELLA TYPHIMURIUM; Strain/Indicator: TA100; Metabolic Activation: RAT, LIVER, S-9; Method: PREINCUBATION
Active and inactive are the calls of the source. No rule for the calls is given here.
Give your call using only these classes: active, inactive

The following compounds have reported results that may help.
Cc1c2ccccc2c(C)c2c1ccc1ccccc12	active
CC(C)(C)C1=CC(=CC=C2C=C(C(C)(C)C)C(=O)C(C(C)(C)C)=C2)C=C(C(C)(C)C)C1=O	inactive
O=NN1CCCC1	inactive
Cc1ccc2ncccc2c1	active
C=C[C@H]1CN2CC[C@H]1C[C@H]2[C@H](OC(=O)OCC)c1ccnc2ccc(OC)cc12	inactive
CC(=O)CN(CC(C)O)N=O (configuration not stated)	active

Next item in the queue.
[in] Tell me the assay call for `CCOC(=O)[C@H]1O[C@@H]1C(=O)N[C@@H](CC(C)C)C(=O)NCCC(C)C` please.
[out] inactive

---

System: CCRIS mutagenicity, Ames/micronucleus/aberration tests
Assay: CCRIS mutagenicity studies
Settings: Test System: AMES SALMONELLA TYPHIMURIUM; Strain/Indicator: TA100; Metabolic Activation: NONE; Method: STANDARD PLATE
Source text: The CCRIS database contains chemical records with carcinogenicity, mutagenicity, tumor promotion, and tumor inhibition test results. It was developed by the National Cancer Institute (NCI). Data are derived from studies cited in primary journals, current awareness tools, NCI reports, and other sources. Test results have been reviewed by experts in carcinogenesis and mutagenesis. CCRIS provides historical information from the years 1985 - 2011. It is no longer updated. […]
Active and inactive are the calls of the source. The rule behind the calls is not given here.
Give your call using only these classes: TRUE for active, FALSE for inactive

The following compounds have reported results that may help.
O=C1C=CC(=O)C1(Cl)Cl	TRUE
Clc1ccc(Cl)nc1	FALSE
Cc1cc(-c2ccc(N=Nc3cc(S(=O)(=O)O)c4ccccc4c3N)c(C)c2)ccc1N=Nc1cc(S(=O)(=O)O)c2ccccc2c1N	FALSE

[in] Tell me the assay call for `O=[N+]([O-])O[C@@H]1CO[C@H]2[C@@H]1OC[C@@H]2O` please.
[out] FALSE

[in] Tell me the assay call for `OCCN(CCO)c1ccc2ccccc2c1` please.
[out] FALSE
